test system: Escherichia coli ATCC 25922; format: cell-based
Non-standard residues stand in square brackets, D forms with d. Residues, ends and D or L forms follow the SMILES beside them. d2Nal = N[C@H](Cc1ccc2ccccc2c1)C(=O)O
Quick reference for MIC Escherichia coli ATCC 25922 among some compounds
Just the number please, in µg/mL, no unit attached.

* CC(=O)N[C@H](CCCNC(=N)N)C(=O)N[C@H](CCCCN)C(=O)N[C@H](CC(C)C)C(=O)N[C@H](CC(C)C)C(=O)N[C@H](Cc1ccc2ccccc2c1)C(=O)N[C@H](CCCNC(=N)N)C(=O)N[C@H](CC(C)C)C(=O)N[C@H](CCCCN)C(=O)N[C@H](Cc1ccc2ccccc2c1)C(=O)N[C@H](CCCNC(=N)N)C(=O)N[C@H](CCCCN)C(N)=O [LV-20] (Ac-[dR][dK][dL][dL][d2Nal][dR][dL][dK][d2Nal][dR][dK]-NH2) | 1
* CC(=O)N[C@H](CCCCN)C(=O)N[C@H](CCCCN)C(=O)N[C@H](CC(C)C)C(=O)N[C@H](CC(C)C)C(=O)N[C@H](Cc1ccc2ccccc2c1)C(=O)N[C@H](CCCCN)C(=O)N[C@H](CC(C)C)C(=O)N[C@H](CCCCN)C(=O)N[C@H](Cc1ccc2ccccc2c1)C(=O)N[C@H](CCCCN)C(=O)N[C@H](CCCCN)C(N)=O [LV-17] (Ac-[dK][dK][dL][dL][d2Nal][dK][dL][dK][d2Nal][dK][dK]-NH2) | 1

Now turn to the next compound.
Exercise: Hello, I am looking for reported MIC Escherichia coli ATCC 25922 with Escherichia coli ATCC 25922 for CC(=O)N[C@H](CCCNC(=N)N)C(=O)N[C@H](CCCCN)C(=O)N[C@H](CC(C)C)C(=O)N[C@H](CC(C)C)C(=O)N[C@H](Cc1ccccc1)C(=O)N[C@H](CCCNC(=N)N)C(=O)N[C@H](CC(C)C)C(=O)N[C@H](CCCCN)C(=O)N[C@H](Cc1ccc2ccccc2c1)C(=O)N[C@H](CCCNC(=N)N)C(=O)N[C@H](CCCCN)C(N)=O [LV-3] (Ac-[dR][dK][dL][dL][dF][dR][dL][dK][d2Nal][dR][dK]-NH2) . Could you help?
Key: 1

----------
test system: Pseudomonas aeruginosa ATCC 27853; format: cell-based
Non-standard residues stand in square brackets, D forms with d. Residues, ends and D or L forms follow the SMILES beside them. d2Nal = N[C@H](Cc1ccc2ccccc2c1)C(=O)O; dNva = CCC[C@@H](N)C(=O)O
REPORTED PROPERTY: MIC Pseudomonas aeruginosa ATCC 27853
Answer format reminder: number followed by unit.

- CCC[C@@H](NC(=O)[C@@H](CCCCN)NC(=O)[C@@H](CCCNC(=N)N)NC(C)=O)C(=O)N[C@H](CCC)C(=O)N[C@H](Cc1ccc2ccccc2c1)C(=O)N[C@H](CCCNC(=N)N)C(=O)N[C@H](CCC)C(=O)N[C@H](CCCCN)C(=O)N[C@H](Cc1ccc2ccccc2c1)C(=O)N[C@H](CCCNC(=N)N)C(=O)N[C@H](CCCCN)C(N)=O [LV-13] (Ac-[dR][dK][dNva][dNva][d2Nal][dR][dNva][dK][d2Nal][dR][dK]-NH2): 4 µg/mL
- CC(=O)N[C@H](CCCNC(=N)N)C(=O)N[C@H](CCCNC(=N)N)C(=O)N[C@H](CC(C)C)C(=O)N[C@H](CC(C)C)C(=O)N[C@H](Cc1ccc2ccccc2c1)C(=O)N[C@H](CCCNC(=N)N)C(=O)N[C@H](CC(C)C)C(=O)N[C@H](CCCNC(=N)N)C(=O)N[C@H](Cc1ccc2ccccc2c1)C(=O)N[C@H](CCCNC(=N)N)C(=O)N[C@H](CCCNC(=N)N)C(N)=O [LV-1] (Ac-[dR][dR][dL][dL][d2Nal][dR][dL][dR][d2Nal][dR][dR]-NH2): 1 µg/mL

Exercise: Hello, I am looking for reported MIC Pseudomonas aeruginosa ATCC 27853 with Pseudomonas aeruginosa ATCC 27853 for CC(=O)N[C@H](CCCCN)C(=O)N[C@H](CCCCN)C(=O)N[C@H](CC(C)C)C(=O)N[C@H](CC(C)C)C(=O)N[C@H](Cc1ccc2ccccc2c1)C(=O)N[C@H](CCCCN)C(=O)N[C@H](CC(C)C)C(=O)N[C@H](CCCCN)C(=O)N[C@H](Cc1ccc2ccccc2c1)C(=O)N[C@H](CCCCN)C(=O)N[C@H](CCCCN)C(N)=O [LV-17] (Ac-[dK][dK][dL][dL][d2Nal][dK][dL][dK][d2Nal][dK][dK]-NH2) . Could you help?
Key: 1 µg/mL

Values were extracted from patent US20250304620A1.
